Measured values drawn from paper PMC5540273 for this set.

Below, each of the molecules is paired with its reported %Inh value.
# Test system: DRAK2
# Construct: gene STK17B
# CONDITIONS: concentration: 1 μM, replicates: in singlicate; n = 1;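 note: KINOMEscan kinase panel screen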
Express your answer in %, writing the number without its unit.

Before answering, review these 4 worked examples.
### Prompt Quick check: %Inh of COCCOCCOc1cc2ncc3c4ccc(C#N)cc4[nH]c3c2cc1OC ?
### Response 100

### Prompt Quick check: %Inh of O=C(Nc1n[nH]c2nc(-c3ccc(O)cc3)ccc12)C1CC1 ?
### Response 26

### Prompt Quick check: %Inh of CN(C)S(=O)(=O)c1cc(-c2ccc3nccc(-c4cccc(S(N)(=O)=O)c4)c3c2)cnc1N ?
### Response 0

### Prompt Quick check: %Inh of COc1ccc(CNC(=O)NC2CCN(c3ccnc(Nc4ccc(F)cc4)n3)CC2)cc1 ?
### Response 0

More entries:
### Prompt Quick check: %Inh of Nc1ncc(-c2cccnc2)c2scc(-c3ccc4c(c3)CCN4C(=O)Cc3ccccc3)c12 ?
### Response 0

### Prompt Quick check: %Inh of CN1CCN(CCCNc2nccc(-c3c(-c4ccc(F)cc4)nn4cc(C(F)(F)F)ccc34)n2)CC1 ?
### Response 0

### Prompt Quick check: %Inh of c1ccc(Oc2ccc(Nc3ccnc4cc(-c5ccc(CNCCN6CCOCC6)o5)ccc34)cc2)nc1 ?
### Response 54

* * *

Below, each of the compounds is paired with its reported %Inh value.
# Tested on: WNK3
# CONDITIONS: concentration: 1 μM, replicates: in singlicate; n = 1
Express your answer in %, writing the number without its unit.

Before answering, review these 3 worked examples.
### Prompt Quick check: %Inh of CCCCc1nn2ncccc2c1-c1ccnc(Nc2ccc(N3CCN(C)CC3)cc2)n1 ?
### Response 54

### Prompt Quick check: %Inh of Clc1ccc(-c2nn3ncccc3c2-c2ccnc(Nc3ccc4c(c3)OCCO4)n2)cc1 ?
### Response 0

### Prompt Quick check: %Inh of Cc1cccc(Nc2nc(N[C@H]3CCNC3)ncc2C(N)=O)c1.Cl ?
### Response 0

More entries:
### Prompt Quick check: %Inh of FC(F)(F)c1ccc(/C=C/c2cncnc2Nc2ccc3[nH]c(Cc4ccccc4)nc3c2)cc1 ?
### Response 0

* * *

Below, each of the compounds is paired with its reported %Inh value.
# System: SGK
# CONDITIONS: concentration: 1 μM, replicates: in singlicate; n = 1
Please provide the amount together with its unit, number first.

Before answering, review these 5 worked examples.
### Prompt Quick check: %Inh of Nc1ncc(-c2cccnc2)c2scc(-c3ccc4c(c3)CCN4C(=O)Cc3ccccc3)c12 ?
### Response 0%

### Prompt Quick check: %Inh of Cc1cccc(NC(=O)Nc2ccc(Oc3ncnc4ccn(C)c34)cc2)c1 ?
### Response 0%

### Prompt Quick check: %Inh of Cc1cccc(Nc2nc(N[C@H]3CCNC3)ncc2C(N)=O)c1.Cl ?
### Response 0%

### Prompt Quick check: %Inh of COc1cc(Nc2nccc(N3CCC(NC(=O)c4cc5ccccc5s4)C3)n2)cc(OC)c1OC (stereo not drawn) ?
### Response 11%

### Prompt Quick check: %Inh of COC(=O)Nc1nc2cc(Oc3ccc(NC(=O)Nc4cc(C(F)(F)F)ccc4F)cn3)ccc2[nH]1.Cl.Cl ?
### Response 12%

Okay, now this compound:
### Prompt Quick check: %Inh of COc1ccc(Nc2nccc(NCCNC(=O)c3cc4ccccc4s3)n2)cc1 ?
### Response 0%

* * *

# Test system: AAK1
# CONDITIONS: concentration: 1 μM, replicates: in singlicate; n = 1
Below, each of the molecules is paired with its reported %Inh value.
Express your answer in %, writing the number without its unit.

Before answering, review these 8 worked examples.
### Prompt Quick check: %Inh of COc1cc(Nc2ncc3c(C)nc(-c4cc5ccccc5[nH]4)n3n2)cc(OC)c1OC [GW869516] ?
### Response 0

### Prompt Quick check: %Inh of Cn1cc(-c2ccc3c(c2)CCN3C(=O)Cc2cccc(Cl)c2)c2c(N)ncnc21 [GSK2606590] ?
### Response 30

### Prompt Quick check: %Inh of CN1CCN(Cc2cccc(-c3ccc4c(Nc5ccc(Oc6ccccc6)cc5)ccnc4c3)c2)CC1 [GW578342] ?
### Response 10

### Prompt Quick check: %Inh of COc1cc(Nc2nccc(-c3c(-c4cccc(NC(=O)c5c(F)cccc5F)c4)nn4ccccc34)n2)cc(OC)c1OC [GSK323521] ?
### Response 44

### Prompt Quick check: %Inh of Fc1ccc(-c2ncn(C3CCNCC3)c2-c2ccnc(Oc3ccc(-c4ccccc4)cc3)n2)cc1 [SB-245391] ?
### Response 14

### Prompt Quick check: %Inh of Cc1ccc(F)c(C(=O)Nc2cccc(-c3nn4ccccc4c3-c3ccnc(Nc4cccc(F)c4)n3)c2)c1F [GSK361061] ?
### Response 16

### Prompt Quick check: %Inh of O=C(Nc1cccc(-c2nn3ccccc3c2-c2ccnc(Nc3cccc(C(F)(F)F)c3)n2)c1)c1c(F)cccc1F [GSK292658] ?
### Response 0

### Prompt Quick check: %Inh of Cl.NC(=O)c1cccc(Nc2nccc(Nc3ccc(Oc4c(Cl)cccc4Cl)c(Cl)c3)n2)c1 [GW659009] ?
### Response 15

More entries:
### Prompt Quick check: %Inh of Cn1cc(-c2ccc3c(c2)CCN3C(=O)Cc2cccc(F)c2)c2c(N)ncnc21 [GSK2603358] ?
### Response 18

### Prompt Quick check: %Inh of COc1cc(Nc2nccc(-c3c(-c4cccc(NC(=O)c5c(F)cccc5F)c4)nn4ncccc34)n2)cc(OC)c1OC [GSK327238] ?
### Response 13

* * *

Below, each of the compounds is paired with its reported %Inh value.
# Test system: EPHB2
# CONDITIONS: concentration: 1 μM, replicates: in singlicate; n = 1
Please provide the amount together with its unit, number first.

Before answering, review these 3 worked examples.
### Prompt Entry Cc1occc1-c1ncc(OC[C@@H](N)Cc2c[nH]c3ccccc23)cc1-c1ccc2[nH]nc(C)c2c1.O=C(O)C(F)(F)F [GSK682037] , system EPHB2: what %Inh was measured?
### Response 0%

### Prompt Entry Cl.Cl.NCC(C(=O)Nc1cc(Br)c(-c2ccnc3[nH]ccc23)s1)c1ccccc1 (centres unmarked) [GSK1269851] , system EPHB2: what %Inh was measured?
### Response 0%

### Prompt Entry CCn1c(-c2nonc2N)nc2c(C#CC(C)(C)O)ncc(OCCCCN)c21.O=C(O)C(F)(F)F.O=C(O)C(F)(F)F [GSK507274] , system EPHB2: what %Inh was measured?
### Response 0%

More entries:
### Prompt Entry O=C(Nc1cccc(-c2nn3ncccc3c2-c2ccnc(Nc3ccccc3)n2)c1)c1c(F)cccc1F [GSK198271] , system EPHB2: what %Inh was measured?
### Response 11%

### Prompt Entry Nc1n[nH]c2cnc(-c3ccccc3)cc12 [SB-642124] , system EPHB2: what %Inh was measured?
### Response 40%

### Prompt Entry CC(=O)Nc1nc2cnc(Nc3cc(NC(=O)c4cccc(C5(C#N)CC5)c4Cl)ccc3C)nc2s1 , system EPHB2: what %Inh was measured?
### Response 50%

### Prompt Entry CN1CCN(CCCNc2nccc(-c3c(-c4ccc(F)cc4)nn4cc(C(F)(F)F)ccc34)n2)CC1 [GW621581] , system EPHB2: what %Inh was measured?
### Response 0%

### Prompt Entry COc1cc(Nc2ncc3c(C)nc(-c4cc5ccccc5[nH]4)n3n2)cc(OC)c1OC [GW869516] , system EPHB2: what %Inh was measured?
### Response 36%

* * *

# System: EPHA1
# CONDITIONS: concentration: 1 μM, replicates: in singlicate; n = 1
READOUT LABEL: %Inh (%)
Express your answer in %, writing the number without its unit.

### Prompt Entry FC(F)(F)c1ccc(/C=C/c2cncnc2Nc2ccc3[nH]c(Cc4ccccc4)nc3c2)cc1 [GW709199] , system EPHA1: what %Inh was measured?
### Response 10

### Prompt Entry Cc1cccc(Nc2nc(N[C@H]3CCNC3)ncc2C(N)=O)c1.Cl [GSK2197149] , system EPHA1: what %Inh was measured?
### Response 0

### Prompt Entry Cc1occc1-c1ncc(OC[C@@H](N)Cc2c[nH]c3ccccc23)cc1-c1ccc2[nH]nc(C)c2c1.O=C(O)C(F)(F)F [GSK682037] , system EPHA1: what %Inh was measured?
### Response 0

### Prompt Entry C[C@@H](Oc1cc(-n2cnc3cc(-c4ccnc(NCCS(C)(=O)=O)c4)ccc32)sc1C(N)=O)c1ccccc1Cl [GSK907232] , system EPHA1: what %Inh was measured?
### Response 9

Okay, now this compound:
### Prompt Entry c1ccc(Oc2ccc(Nc3ccnc4cc(-c5ccc(CNCCN6CCOCC6)o5)ccc34)cc2)nc1 [GW567145] , system EPHA1: what %Inh was measured?
### Response 72
